Reported growth values follow for various compounds
# Test system: IGROV1 ovarian
# EXPERIMENTAL_DETAILS: NCI-60 one-dose screen, 48 h (100 = growth as untreated, 0 = no growth, -100 = all killed)
# EXPERIMENTAL_CONDITIONS: 10 µM
This is part of a sample that, as a whole, favours compounds with a hit. Of some 83,000 tested, about 20% had one in any assay.
Respond numerically; units are % and should not be typed.

Take a look at these entries with their results.
Look up growth for this compound: Clc1ccc(Nc2ccnc(NCCNc3ccnc4cc(Cl)ccc34)n2)cc1
-8.25

Find the recorded growth belonging to O=C1/C(=C\c2ccc(F)cc2)CN(C(=O)c2ccccc2)C/C1=C\c1ccc(F)cc1 and report it.
21.8

I have this compound here, Clc1ccccc1N=Cc1ccc2c(c1)OCO2 , and I need its recorded growth.
111

GET /values?readout=growth&item= COc1ccc(-c2nn(-c3cccc(NC(=O)c4ccc(Cl)c(Cl)c4)c3)cc2-c2ccncc2)cc1Cl
84.5

growth lookup needed for CC(=O)C1CCC2C3CC(F)C4=CC(=O)CCC4(C)C3C(O)CC12C (configuration not stated) , thanks.
97.2

---
Looking for the measured growth of c1ccc(CP(Cc2ccccc2)c2ccccc2)cc1 , can you help?
78.6

Field request: growth | item: C=C(C(=O)c1ccccc1)C(NC(C)(C)C)c1ccccc1 (configuration not stated)
3.59

# growth lookup, item CC(C)(C)c1cc(Br)cc(C(C)(C)C)c1O
115

Quick one: growth of Cn1c(N)c(N=Nc2ccc(S(=O)(=O)Nc3nccs3)cc2)c(=O)n(C)c1=O ?
91.2

Please give the measured growth for this compound: O=S(=O)(Nc1ccccn1)c1ccc(N=Nc2ccc(O)c3ncccc23)cc1
-1.59

Field request: growth | item: Cc1ccc(CC#N)cc1C
74.9

May I ask what growth has been recorded for N#CC1=C(Nc2ccccc2Cl)SC(c2ccccc2O)NC1=O (configuration not stated) ?
102

# get_value(readout='growth', item= N#Cc1ncc(-c2ccc(C(F)(F)F)cc2)c(NCc2cc(C(F)(F)F)cc(C(F)(F)F)c2)n1 )
40.6

Name the reported growth value associated with the compound ClCCOCCn1cnc2c(Cl)nc(Cl)nc21
59

# growth lookup, item CCN(CC)Cc1cc(Nc2ccnc3cc(Cl)ccc23)ccc1OC
94.5

---

# System: HT29 colon
# EXPERIMENTAL_DETAILS: NCI-60 one-dose screen, 48 h (100 = growth as untreated, 0 = no growth, -100 = all killed)
# EXPERIMENTAL_CONDITIONS: 10 µM
About 83,000 compounds went through this panel and 20% of them were active in at least one assay; those are over-represented in the sample as a whole.
Response field label takes Yes when growth is strictly below 90% and No in all other cases.

Solved entries:
A record lists COc1ccc2nc3cc(Cl)ccc3c(NCCNCC(C)O)c2c1 (configuration not stated) . Is its growth below 90%?
Yes

Please let me know if CCN(CC)CCOc1nc2ccccc2c2c1-c1ccc(OC)cc1C2=O shows growth below 90%.
Yes

Others:
Record Cc1cccc(C)c1NC(=O)c1sc2nc3c(cc2c1N)C(=O)CCC3 : is its growth strictly below 90%?
Yes

Given the entry CCCCCCCC(C)NCCO (configuration not stated) , would its reported growth be below 90%?
No

Does this compound meet the criterion growth < 90%? CC1(O)CCC2CC3OC3(C)CCC3OC3(C)CCC1C2(C)C (configuration not stated)
No

# check: growth < 90% for CCCC(F)C(=O)O (configuration not stated)
No

Does the reported growth of the following compound sit strictly below 90%? COc1ccc(Nc2ccnc(NCCNc3ccnc4cc(Cl)ccc34)n2)cc1
Yes

---

# Test system: HS 578T breast
# EXPERIMENTAL_DETAILS: NCI-60 one-dose screen, 48 h (100 = growth as untreated, 0 = no growth, -100 = all killed)
# EXPERIMENTAL_CONDITIONS: 10 µM
The panel holds about 83,000 compounds, 20% with a hit somewhere; the sample as a whole holds those more often. Calls of active or inactive are those of the source. The calls were made as follows: active = growth percent below 10; inactive = the rest.
ENDPOINT_NAME: growth

Give HS 578T breast growth for CCOC(=O)N1C/C(=C/c2ccc(OC)cc2)C(=O)/C(=C/c2ccc(OC)cc2)C1
-15.8% (active)

Requested read-out growth, target or system HS 578T breast, entry O=C1C(c2ccccc2)C2C=CC(C2)N1O (centres undefined)
105% (inactive)

Recall the recorded growth for COc1ccc(OC)c(NC(=O)c2sc3nc4c(cc3c2N)C(=O)CCC4)c1 with HS 578T breast and state it.
96.8% (inactive)

Request - read-out growth | tested on HS 578T breast | compound CC(=O)C1CCC2C3CC(F)C4=CC(=O)CCC4(C)C3C(O)CC12C (centres undefined)
122% (inactive)

Continue with the next compound.
Which measured growth belongs to CCOC(=O)C(NC(=O)C(Cl)Cl)C(O)c1ccccc1 (centres undefined) , tested on HS 578T breast?
120% (inactive)

---

# Test system: NCI-H226 lung
# EXPERIMENTAL_DETAILS: NCI-60 one-dose screen, 48 h (100 = growth as untreated, 0 = no growth, -100 = all killed)
# EXPERIMENTAL_CONDITIONS: 10 µM
The panel holds about 83,000 compounds, 20% with a hit somewhere; the sample as a whole holds those more often.
The label fulfilled is reserved for growth strictly under 10%; not fulfilled covers values equal to or above it.

Answered cases to consult:
Regarding CC(C)C[C@H](NC(=O)[C@H](Cc1cccc2ccccc12)NS(=O)(=O)c1cccc2cccnc12)B(O)O , kindly confirm whether its growth is beneath 10%.
fulfilled

# strict comparison: is reported growth < 10%? input = CS(=O)(=O)Nc1ccc(Nc2c3ccccc3nc3cc(N)ccc23)cc1
fulfilled

Just wondering, is growth of COc1cc(-c2cc(/C=C3\C(=O)Nc4ccccc43)[nH]n2)cc(OC)c1OC below 10%?
not fulfilled

More entries:
A record lists COc1ccc(N2C(=O)C3c4[nH]c5ccc(OCc6ccccc6)cc5c4C4CCC(C(C)C)CC4C3C2=O)cc1 (centres undefined) . Is its growth below 10%?
not fulfilled

# TODO verify growth < 10% strictly for this compound: O=c1c2ccccc2nc(SCCN2CCCCC2)n1CCc1ccccc1
not fulfilled

Threshold test, growth < 10%: O=C1/C(=C\c2ccccc2)CN(C(=O)c2ccccc2)C/C1=C\c1ccccc1
not fulfilled

Given COc1cc(C(=C2O[C@@H]([C@H]3COC(C)(C)O3)[C@H]3OC(C)(C)O[C@@H]23)c2cc(OC)c(OC)c(OC)c2)cc(OC)c1OC , is recorded growth strictly lower than 10%?
not fulfilled

Hello, I'm reviewing records and need to know if growth of COc1cc(Cl)cc(-c2nn(-c3cccc(NC(=O)c4ccc(Cl)c(Cl)c4)c3)cc2-c2ccncc2)c1 is below 10%. Could you check?
not fulfilled

---

# Tested on: BT-549 breast
# EXPERIMENTAL_DETAILS: NCI-60 one-dose screen, 48 h (100 = growth as untreated, 0 = no growth, -100 = all killed)
# EXPERIMENTAL_CONDITIONS: 10 µM
This is part of a sample that, as a whole, favours compounds with a hit. Of some 83,000 tested, about 20% had one in any assay.
ENDPOINT_NAME: growth (%)
Number in %, nothing else.

Can you share its growth? I mean this compound: c1ccc2c(-c3nc(N4CCOCC4)c4c5c(sc4n3)CCCCCC5)cccc2c1
97.9

I would be grateful if you could share the reported growth for Cc1nc2ccccc2c(N)c1-c1cc(C)c2c(C)nc3ccccc3c2n1 .
58.2

Consider the compound COc1cc(-c2cc(/C=C/C(=O)c3ccc(Cl)c(Cl)c3)[nH]n2)cc(OC)c1OC and give its measured growth.
71

Could you share which growth value was measured for N=C(N)c1ccc(-c2ccc(-c3cccs3)o2)cc1 ?
85.2

We now examine a further compound.
For the compound shown here, Clc1ccc(-c2cn(-c3ccccc3)c(-c3ccccc3)n2)c(Cl)c1 , give the reported growth.
-12.7

---

# System: MALME-3M melanoma
# EXPERIMENTAL_DETAILS: NCI-60 one-dose screen, 48 h (100 = growth as untreated, 0 = no growth, -100 = all killed)
# EXPERIMENTAL_CONDITIONS: 10 µM
About 83,000 compounds went through this panel and 20% of them were active in at least one assay; those are over-represented in the sample as a whole. Calls of active or inactive are those of the source. The calls were made as follows: active = growth percent below 10; inactive = the rest.
ENDPOINT_NAME: growth

// solved cases for growth follow
Recorded growth for COc1ccc(/C=C2/CN(C(=O)c3ccccc3F)C/C(=C\c3ccc(OC)cc3)C2=O)cc1 , please?
62.1% (inactive)

Which growth is reported for this molecule? CC12O[C@H](C[C@@H](OC(=O)c3ccccc3)[C@H]1O)n1c3ccccc3c3c4c(c5c6ccccc6n2c5c31)C(=O)NC4=O
46.4% (inactive)

***
What does the data say about its growth? Entry: CN1CCC2(CC1)NC(=O)c1c(c3ccc(Cl)c(Cl)c3n1C)C2C#N (centres undefined)
98.3% (inactive)

Endpoint output: growth of COc1ccc2nc3cc(Cl)ccc3c(NCCNCC(C)O)c2c1 (centres undefined) . Value?
44.4% (inactive)

Quick one: growth of Cc1ccc(S(=O)(=O)Oc2ccc3c4c(c(=O)oc3c2)CCCCC4)cc1 ?
71.9% (inactive)

Name the recorded growth for O=C1/C(=C/c2ccc(Cl)cc2)SC(=Nc2ccc(Cl)cc2)N1Cc1nc2ccccc2[nH]1 .
48.9% (inactive)

Requested read-out: growth. Entry: Clc1ccc(-c2cn(-c3ccccc3)c(-c3ccccc3)n2)c(Cl)c1
-43.3% (active)

Give its growth value. Item: N#Cc1cc(-c2cc3ccccc3o2)oc1N
-5.2% (active)

Using the record for Cc1cc(=O)[nH]c(N/N=C/c2ccccc2O)n1 , report its growth.
35.1% (inactive)

// lookup growth for N#Cc1c(C#N)c(SSc2c(C#N)c(C#N)c(N)n2-c2ccccc2)n(-c2ccccc2)c1N
95.1% (inactive)

Returns the measured growth for the input molecule. Input: ClC(Cl)(Cl)c1nc2nccnc2[nH]1
102% (inactive)
